- testSystem: PI 3-kinase beta (Homo sapiens, UniProt P42338)
- Sequence (P42338 whole entry): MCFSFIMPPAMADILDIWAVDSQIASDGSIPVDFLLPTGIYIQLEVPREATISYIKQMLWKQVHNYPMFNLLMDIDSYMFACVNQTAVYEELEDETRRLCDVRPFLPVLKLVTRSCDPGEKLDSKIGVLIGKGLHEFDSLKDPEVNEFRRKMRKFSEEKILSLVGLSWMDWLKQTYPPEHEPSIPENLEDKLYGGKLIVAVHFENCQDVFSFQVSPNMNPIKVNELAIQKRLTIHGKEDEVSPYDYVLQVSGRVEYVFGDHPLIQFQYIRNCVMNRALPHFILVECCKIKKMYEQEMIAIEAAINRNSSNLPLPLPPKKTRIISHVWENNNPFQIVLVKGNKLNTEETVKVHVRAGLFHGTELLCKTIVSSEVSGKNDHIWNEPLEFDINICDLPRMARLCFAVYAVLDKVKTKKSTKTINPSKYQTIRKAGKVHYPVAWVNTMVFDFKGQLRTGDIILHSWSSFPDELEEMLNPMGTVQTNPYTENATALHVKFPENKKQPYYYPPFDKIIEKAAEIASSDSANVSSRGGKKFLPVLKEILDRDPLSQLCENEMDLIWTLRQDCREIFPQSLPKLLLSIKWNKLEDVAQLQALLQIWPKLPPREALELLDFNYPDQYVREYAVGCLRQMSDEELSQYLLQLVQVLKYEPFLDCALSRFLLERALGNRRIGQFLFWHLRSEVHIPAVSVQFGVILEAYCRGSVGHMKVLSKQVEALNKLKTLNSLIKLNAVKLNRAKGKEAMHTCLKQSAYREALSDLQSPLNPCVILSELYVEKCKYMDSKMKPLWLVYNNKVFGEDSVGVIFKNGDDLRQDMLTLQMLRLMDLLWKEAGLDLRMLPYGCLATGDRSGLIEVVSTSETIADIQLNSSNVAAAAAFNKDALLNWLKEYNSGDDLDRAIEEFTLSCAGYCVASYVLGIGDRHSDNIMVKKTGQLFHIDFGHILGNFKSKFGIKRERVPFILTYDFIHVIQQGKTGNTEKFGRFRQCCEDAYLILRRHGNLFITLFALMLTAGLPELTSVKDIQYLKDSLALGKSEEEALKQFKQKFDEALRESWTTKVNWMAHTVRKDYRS
- Sequence (P27986 461-568 partner): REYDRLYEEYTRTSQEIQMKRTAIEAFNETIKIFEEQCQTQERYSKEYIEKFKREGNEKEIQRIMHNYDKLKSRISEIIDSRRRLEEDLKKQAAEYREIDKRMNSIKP
- testDetails: Kinase Glo Luminescent Kinase Assay (Kglo), assay B
- Type: biochemical
- experimentalContext: read-out: Assay B PI3Kβ IC50
The entries below come with measured IC50 values attached.

# compound, testSystem, comparator, IC50 / nM
measured = [
    ("Cc1ccc(S(=O)(=O)NCC2(O)CC2)cc1-c1cnc(N)c(-n2cncn2)n1 [Example 28]", "PI 3-kinase beta (Homo sapiens, UniProt P42338)", "=", 4300),
    ("Cc1ccc(S(=O)(=O)N2CC(F)(F)C2)cc1-c1cnc(N)c(-n2cncn2)n1 [Example 127.4]", "PI 3-kinase beta (Homo sapiens, UniProt P42338)", "=", 6550),
    ("Cc1ccc(S(=O)(=O)NCCC(C)(C)O)cc1-c1cnc(N)c(-c2ccoc2)n1 [Example 119.15]", "PI 3-kinase beta (Homo sapiens, UniProt P42338)", "=", 8810),
    ("Cc1ccc(S(=O)(=O)NOCCN(C)C)cc1-c1cnc(N)c(-n2cncn2)n1 [Example 112.2]", "PI 3-kinase beta (Homo sapiens, UniProt P42338)", "=", 1300),
    ("Cc1ccc(S(=O)(=O)NCC2CCN(C)C2)cc1-c1cnc(N)c(-n2cncn2)n1 (stereo not shown) [Example 127.18]", "PI 3-kinase beta (Homo sapiens, UniProt P42338)", "=", 2400),
    ("Cc1ccc(S(=O)(=O)N[C@H]2CC[C@H](O)CC2)cc1-c1cnc(N)c(-c2nc(C(C)C)no2)n1 [Example 23]", "PI 3-kinase beta (Homo sapiens, UniProt P42338)", ">", 9100),
    ("Cc1ccc(S(=O)(=O)NCC2(CO)CCC2)cc1-c1cnc(N)c(-n2cncn2)n1 [Example 127.49]", "PI 3-kinase beta (Homo sapiens, UniProt P42338)", "=", 460),
    ("Cc1ccc(S(=O)(=O)NCC(C)(C)O)cc1-c1cnc(N)c(-n2cncn2)n1 [Example 6]", "PI 3-kinase beta (Homo sapiens, UniProt P42338)", "=", 2310),
    ("CCN(CC)CCCNS(=O)(=O)c1ccc(C)c(-c2cnc(N)c(-c3ccnc(C)c3)n2)c1 [Example 129.23]", "PI 3-kinase beta (Homo sapiens, UniProt P42338)", "=", 3300),
    ("Cc1ccc(S(=O)(=O)NC[C@@H]2CCC(C)(C)O2)cc1-c1cnc(N)c(-n2cncn2)n1 [Example 127.39]", "PI 3-kinase beta (Homo sapiens, UniProt P42338)", "=", 2300),
    ("Cc1ccc(S(=O)(=O)NCC(C)(C)O)cc1-c1cnc(N)c(-c2cnc(C3CC3)s2)n1 [Example 21]", "PI 3-kinase beta (Homo sapiens, UniProt P42338)", "=", 150),
    ("Cc1cc(-c2nc(-c3cc(S(=O)(=O)NCC(C)(C)O)ccc3C)cnc2N)on1 [Example 88]", "PI 3-kinase beta (Homo sapiens, UniProt P42338)", "=", 2200),
    ("Cc1ccc(S(=O)(=O)NCC2COC2)cc1-c1cnc(N)c(-n2cncn2)n1 [Example 131]", "PI 3-kinase beta (Homo sapiens, UniProt P42338)", "=", 2450),
    ("CNCCNS(=O)(=O)c1ccc(C)c(-c2cnc(N)c(-c3ccnc(C)c3)n2)c1 [Example 129.33]", "PI 3-kinase beta (Homo sapiens, UniProt P42338)", ">", 9100),
    ("Cc1ccc(S(=O)(=O)N[C@H]2CC[C@H](O)CC2)cc1-c1cnc(N)c(-n2cncn2)n1 [Example 15]", "PI 3-kinase beta (Homo sapiens, UniProt P42338)", "=", 1930),
    ("Cc1ccc(S(=O)(=O)NOC(C)C)cc1-c1cnc(N)c(-n2cncn2)n1 [Example 112.3]", "PI 3-kinase beta (Homo sapiens, UniProt P42338)", "=", 1100),
]
